# Tested on: alpha-SG-null C57BL/6 mouse
# protocol: Histology: number of inflammatory infiltrates in muscle sections
# Type: in vivo
# run.parameters: alpha-SG-null mice, drugs daily in the diet, 30 days of treatment, n = 4
Provide the reported N° of inflammatory infiltrates/sections of each item.
Numbers only.

>  <compound>
C[C@]12C=CC(=O)C=C1CC[C@@H]1[C@@H]2[C@@H](O)C[C@@]2(C)[C@H]1CC[C@]2(O)C(=O)CO [Prednisolone]

>  <observed.result>
103.4

$$$$

# evaluate next
// N° of inflammatory infiltrates/sections value for O=[N+]([O-])O[C@@H]1CO[C@H]2[C@@H]1OC[C@@H]2O [ISMN, isosorbide-mononitrate] : 190.2

----------
# System: alpha-SG-null C57BL/6 mouse
# protocol: Histology: number of necrotic fibres in muscle sections
# Type: in vivo
# run.parameters: alpha-SG-null mice, drugs daily in the diet, 30 days of treatment, n = 4
I'd appreciate it if you could supply N° of necrotic fibres/section values for the items below.

>  <compound>
O=[N+]([O-])O[C@@H]1CO[C@H]2[C@@H]1OC[C@@H]2O [ISMN, isosorbide-mononitrate]

>  <N° of necrotic fibres/section>
238.0 ± 27.2

$$$$
>  <compound>
C[C@]12C=CC(=O)C=C1CC[C@@H]1[C@@H]2[C@@H](O)C[C@@]2(C)[C@H]1CC[C@]2(O)C(=O)CO [Prednisolone]

>  <N° of necrotic fibres/section>
217.3 ± 37.3

$$$$
>  <compound>
CC(=O)Oc1ccccc1C(=O)O [Aspirin]

>  <N° of necrotic fibres/section>
249.0 ± 32.1

$$$$

Lab note: next compound to report on.
Value of N° of necrotic fibres/section reported for the compound CC(C)Cc1ccc(C(C)C(=O)O)cc1 (stereo not shown) [Ibuprofen] is 269.0 ± 34.3

----------
# System: Satellite cells from alpha-SG-null C57BL/6 mice
# protocol: Fusion index of differentiating satellite cells
# Format: cell-based, mouse
# run.parameters: 72 hours of treatment in differentiating medium, n = 4
quantity: Fusion index

>  <compound>
CC(C)Cc1ccc(C(C)C(=O)O)cc1 (stereo not shown)

>  <target>
Satellite cells from alpha-SG-null C57BL/6 mice

>  <Fusion index>
42 ± 2.3%

$$$$
>  <compound>
C[C@]12C=CC(=O)C=C1CC[C@@H]1[C@@H]2[C@@H](O)C[C@@]2(C)[C@H]1CC[C@]2(O)C(=O)CO

>  <target>
Satellite cells from alpha-SG-null C57BL/6 mice

>  <Fusion index>
41 ± 2.0%

$$$$
>  <compound>
CC(=O)Oc1ccccc1C(=O)O

>  <target>
Satellite cells from alpha-SG-null C57BL/6 mice

>  <Fusion index>
43 ± 1.7%

$$$$

Moving on to the next compound.
So for O=[N+]([O-])O[C@@H]1CO[C@H]2[C@@H]1OC[C@@H]2O [ISMN, isosorbide-mononitrate] , the logged Fusion index turned out to be 76 ± 3.3 %
